Molecular target: human SLC6A19 and TMEM27 (Homo sapiens)
Construct: expressed in transfected cells
Sequence (Q695T7 1-634): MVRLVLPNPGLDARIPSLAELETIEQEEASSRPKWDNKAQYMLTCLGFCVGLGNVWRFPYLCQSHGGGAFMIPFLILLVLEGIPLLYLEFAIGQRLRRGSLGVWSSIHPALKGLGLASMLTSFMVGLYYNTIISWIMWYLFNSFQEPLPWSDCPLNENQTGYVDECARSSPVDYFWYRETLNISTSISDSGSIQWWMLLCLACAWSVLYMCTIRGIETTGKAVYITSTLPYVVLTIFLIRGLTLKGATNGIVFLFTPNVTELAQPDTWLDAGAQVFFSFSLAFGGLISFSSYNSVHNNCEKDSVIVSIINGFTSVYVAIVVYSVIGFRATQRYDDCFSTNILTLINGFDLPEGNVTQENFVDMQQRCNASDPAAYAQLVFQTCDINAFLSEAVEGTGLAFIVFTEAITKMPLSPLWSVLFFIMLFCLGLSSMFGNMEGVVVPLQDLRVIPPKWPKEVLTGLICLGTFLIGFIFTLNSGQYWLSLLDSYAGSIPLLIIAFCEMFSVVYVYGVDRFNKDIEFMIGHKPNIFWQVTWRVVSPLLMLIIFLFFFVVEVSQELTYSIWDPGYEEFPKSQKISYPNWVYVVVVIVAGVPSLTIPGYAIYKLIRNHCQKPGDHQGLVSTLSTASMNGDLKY
Sequence (Q9HBJ8 15-222 partner): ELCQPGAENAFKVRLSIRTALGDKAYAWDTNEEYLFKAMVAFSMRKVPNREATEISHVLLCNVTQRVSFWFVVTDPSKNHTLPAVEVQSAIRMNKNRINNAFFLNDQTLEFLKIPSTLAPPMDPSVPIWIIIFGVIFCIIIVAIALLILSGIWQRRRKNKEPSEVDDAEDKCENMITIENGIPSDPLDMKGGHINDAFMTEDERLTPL
Assay: Radiolabelled (3H) leucine uptake in CHO cells with doxycycline-inducible expression of human SLC6A19 and TMEM27 (Example B-1)
Format: cell-based
Conditions: CHO cells with doxycycline-inducible expression of human SLC6A19 and TMEM27, read-out: SLC6A19_Radioligand Uptake Assay IC50
pIC50: −log10 of the molar value.
measured-quantity: pIC50

[I] CC1(C(=O)NCc2cc3cc(F)c(NCc4cscn4)cc3[nH]2)CC1
[II] CC(=O)NCc1cc2cc(F)c(OCc3cccc(F)n3)cc2[nH]1
[III] C[C@H]1CCN1C(=O)NCc1cc2cc(Cl)c(OCc3cscn3)cc2[nH]1
# rank_down: sort by pIC50, max first Reply format: the labels, ordered as requested.
I, III, II

[I] CCC(=O)NCc1cc2cc(Cl)c(OCc3cccc(F)n3)cc2[nH]1
[II] CC1(C(=O)NCc2cc3cc(Cl)c(CNc4ccccn4)cc3[nH]2)CC1
[III] CNC(=O)NCc1cc2cc(F)c(OCc3ccon3)cc2[nH]1
List these items ordered by pIC50, big to small. Sort the labels as requested; that list is your answer.
I, II, III

[a] [2H]C([2H])([2H])c1cc(COc2cc3[nH]c(CNC(=O)C4(C)CC4)cc3cc2F)no1
[b] O=C(NCc1cc2cc(Cl)c(OCc3ccon3)cc2[nH]1)C1CCCC1
[c] CCC(=O)NCc1cc2cc(F)c(OCc3cc(C)no3)cc2[nH]1
Order the records, beginning with the lowest pIC50 and ending with the highest. In plain terms: list the labels in the order you were asked to.
b, a, c

The reported measurements were obtained from patent US20240199546A1.
